# protocol.details: Proposed mechanism(s) of liver damage. [column 'MEC' in source]
# applied.conditions: human
measurement.type: Hepatotoxicity (mechanism)

Before answering, review these 5 worked examples.
* O=c1n(CCCN2CCN(c3cccc(Cl)c3)CC2)nc2ccccn12 [TRAZODONE] | Allergic
* CC[C@@H](CO)NCCN[C@@H](CC)CO [ETHAMBUTOL] | Allergic
* CC(O)CCC(=O)c1ccoc1 (stereo not drawn) | Dose-dependant
* CN(C)[C@@H]1C(O)=C(C(N)=O)C(=O)[C@@]2(O)C(O)=C3C(=O)c4c(O)ccc(Cl)c4[C@@H](O)[C@H]3C[C@@H]12 [DEMECLOCYCLINE] | Dose-dependant
* CC(C)C[C@H]1C(=O)N2CCC[C@H]2[C@]2(O)O[C@](NC(=O)[C@@H]3C=C4c5cccc6[nH]c(Br)c(c56)C[C@H]4N(C)C3)(C(C)C)C(=O)N12 [BROMOCRIPTINE] | Dose-dependant

// recorded Hepatotoxicity (mechanism) for CC(=O)Nc1cc([As](=O)(O)O)ccc1O [ACETARSONE] : Allergic

// recorded Hepatotoxicity (mechanism) for CC(=O)CCC1C(=O)N(c2ccccc2)N(c2ccccc2)C1=O [KEBUZONE] : Allergic

// recorded Hepatotoxicity (mechanism) for CC(C)[C@H](N)C(=O)OCCOCn1cnc2c(=O)[nH]c(N)nc21 [VALACYCLOVIR] : Dose-dependant
